molecular target: GPR139 (Homo sapiens, UniProt Q6DWJ6); assay: GPR139 Agonist titration / agonist counterscreen assay (calcium detection, HEK-GPR139 cells); format: cell-based; design: expressed in transfected cells; host or cells: HEK Aequorin cells, Maxcyte transient transfection; conditions: GPR139 Agonist Activity; activity relative to known control
Sequence (Q6DWJ6 whole entry): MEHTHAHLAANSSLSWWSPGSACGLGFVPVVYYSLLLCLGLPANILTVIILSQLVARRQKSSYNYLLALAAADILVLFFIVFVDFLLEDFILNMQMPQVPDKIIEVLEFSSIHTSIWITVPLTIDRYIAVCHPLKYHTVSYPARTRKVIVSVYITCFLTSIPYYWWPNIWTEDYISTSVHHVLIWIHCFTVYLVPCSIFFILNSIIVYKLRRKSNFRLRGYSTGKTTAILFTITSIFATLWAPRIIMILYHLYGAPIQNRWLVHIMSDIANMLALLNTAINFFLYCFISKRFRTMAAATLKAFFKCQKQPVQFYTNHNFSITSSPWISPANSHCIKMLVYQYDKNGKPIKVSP
recorded.endpoint: Averaged Max % Response (±St. Dev.) (%)
Answers are plain numbers, in %.

Illustrative cases are given below, each with its answer.
Report the value of Averaged Max % Response (±St. Dev.) obtained on GPR139 (Homo sapiens, UniProt Q6DWJ6) for O=C(NCC1Cc2cccc(-c3ccccn3)c2O1)c1ccc(-n2cccn2)cc1 (centres unmarked) .
89.43

Report the value of Averaged Max % Response (±St. Dev.) obtained on GPR139 (Homo sapiens, UniProt Q6DWJ6) for `CCc1nn(CC(=O)NCc2cccc(Br)c2)c(=O)c2cc3occc3n12` .
105.06

Report the value of Averaged Max % Response (±St. Dev.) obtained on GPR139 (Homo sapiens, UniProt Q6DWJ6) for `O=c1cc(-c2ccccc2)[nH]c2nc(OCc3cccc([N+](=O)[O-])c3)nn12` .
79.17

Report the value of Averaged Max % Response (±St. Dev.) obtained on GPR139 (Homo sapiens, UniProt Q6DWJ6) for `CCCc1cc(=O)n2[nH]c(NCc3ccccc3F)nc2n1` .
100.68

Report the value of Averaged Max % Response (±St. Dev.) obtained on GPR139 (Homo sapiens, UniProt Q6DWJ6) for `Cc1ccc2c(c1)-c1c(cnn1CC(=O)Nc1ccccn1)CO2` .
109.51

Please report Averaged Max % Response (±St. Dev.) for every entry that follows.
1. CCCCN(C)C(=O)CCC(=O)NNC1Cc2ccccc2C2=CC(C)=CC21 (centres unmarked)
2. COCC(=O)Oc1c(Sc2c(F)c(F)c(F)c(F)c2F)c(C)nn1C(C)(C)C
3. O=C(CCc1nc2cccnc2n1Cc1cccs1)NCCc1ccccc1

113.53
95.58
79.43

Please report Averaged Max % Response (±St. Dev.) for every entry that follows.
1. O=C(Cn1ncn2c(cc3sccc32)c1=O)NCCc1ccc(Cl)cc1
2. CC1CCC(NC(=O)CCC(=O)N2CCSc3ccccc32)CC1 (centres unmarked)
3. COc1ccccc1OCC(=O)NCCc1ccc2c(c1)CCCN2C
4. Cc1[nH]c(=O)[nH]c(=O)c1/C=N\NC(=O)CCc1ccc(OC(C)C)cc1
5. COc1ccc(Cl)cc1C(=O)NNC(=O)CCc1ccc([N+](=O)[O-])cc1
6. O=C(CN1CCN(Cc2ccccc2F)C1=O)NCCc1ccc(Cl)cc1

90.08
95.57
102.69
87.67
96.13
103.06

Please report Averaged Max % Response (±St. Dev.) for every entry that follows.
1. COc1ccccc1NC(=O)C(=O)NNC(=O)COc1ccc(Br)cc1C
2. O=C(CC(c1ccccc1)c1ccccc1)Oc1coc(CSc2ncccn2)cc1=O
3. CC(Oc1ccccc1)C(=O)NCCn1ccc2ccccc21 (centres unmarked)

66.69
91.42
90.02

Please report Averaged Max % Response (±St. Dev.) for every entry that follows.
1. O=C(CSc1ccc(Cl)cc1)NNC(=O)c1ccc([N+](=O)[O-])cc1
2. COc1ccccc1CC1(C)NC(=O)N(CC(=O)NC(C)c2cccc(Cl)c2)C1=O (centres unmarked)
3. Cc1nn(CC(=O)NC2CCCc3ccccc32)c(=O)c2c1sc1ccccc12 (centres unmarked)

[111.41, 87.90, 89.89]
